Measured Activity values are reported for all entries that follow.
system.under.test: Polyunsaturated fatty acid lipoxygenase ALOX15 (Homo sapiens) (UniProt P16050)
Sequence (P16050 whole entry): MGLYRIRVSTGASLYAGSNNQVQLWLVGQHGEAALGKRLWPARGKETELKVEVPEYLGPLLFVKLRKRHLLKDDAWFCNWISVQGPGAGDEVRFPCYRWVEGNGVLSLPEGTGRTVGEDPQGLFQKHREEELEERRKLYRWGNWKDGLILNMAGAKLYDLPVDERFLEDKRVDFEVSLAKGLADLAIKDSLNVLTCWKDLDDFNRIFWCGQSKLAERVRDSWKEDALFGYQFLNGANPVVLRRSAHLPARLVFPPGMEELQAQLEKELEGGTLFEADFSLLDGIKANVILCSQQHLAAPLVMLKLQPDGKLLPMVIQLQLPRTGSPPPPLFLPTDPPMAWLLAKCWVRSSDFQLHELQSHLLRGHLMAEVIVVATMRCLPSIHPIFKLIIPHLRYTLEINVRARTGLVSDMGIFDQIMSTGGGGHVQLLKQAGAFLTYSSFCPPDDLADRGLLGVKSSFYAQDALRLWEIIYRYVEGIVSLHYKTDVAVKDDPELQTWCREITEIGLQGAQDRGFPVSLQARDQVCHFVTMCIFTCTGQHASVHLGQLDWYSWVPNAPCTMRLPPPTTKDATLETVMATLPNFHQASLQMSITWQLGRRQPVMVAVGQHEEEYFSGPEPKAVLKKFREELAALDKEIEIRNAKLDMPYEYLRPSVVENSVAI
assay.info: Inhibition of 15-LO1-mediated 15-HPETE formation in human eosinophil using arachidonic acid as substrate assessed as residual activity at 50 uM preincubated for 15 mins before substrate addition measured after 10 mins

Reference set (2 entries):
For this molecule ( Nc1ccc(-c2csc(Nc3ccc(O)cc3)n2)cc1 ), measured Activity is > 70%

Record O=S(=O)(c1ccc(-c2csc(Nc3ccc(Cl)cc3)n2)cc1)N1CCOCC1 , field Activity: 41.3%

Next:
Data point: Clc1ccc(-c2csc(Nc3ccc4c(c3)OCO4)n2)cc1 ; Activity = > 70%

Clc1ccc(-c2csc(Nc3ccccc3)n2)cc1 has a reported Activity of > 70%

Measured Activity, Oc1ccccc1Nc1nc(-c2ccc(Cl)cc2)cs1 : > 70%

Record COc1ccc(Nc2nc(-c3ccc(Cl)cc3)cs2)c(OC)c1 . Reported Activity: > 70%

// sample Oc1cccc(Nc2nc(-c3ccc(Cl)cc3)cs2)c1 , its Activity was 57%

Recorded result, Oc1ccc(Nc2nc(-c3ccc(Cl)c(Cl)c3)cs2)cc1 , Activity: > 70%

The reported value for Oc1ccc(-c2csc(Nc3ccc(Cl)cc3)n2)cc1 in terms of Activity is 43.1%

The measured Activity associated with COc1ccc(Nc2nc(-c3ccc(Cl)cc3)cs2)cc1OC reads > 70%

Consider Clc1ccc(-c2csc(Nc3ccc(N4CCOCC4)cc3)n2)cc1 . Its measured Activity is > 70%

Item: CC(=O)c1cccc(Nc2nc(-c3ccc(Cl)cc3)cs2)c1 | Activity: > 70%

Lab note: COc1ccc(Nc2nc(-c3ccc(Cl)cc3)cs2)cc1 gave Activity of > 70%

====

system.under.test: Prostaglandin G/H synthase 1 (Homo sapiens) (UniProt P23219)
Sequence (P23219 whole entry): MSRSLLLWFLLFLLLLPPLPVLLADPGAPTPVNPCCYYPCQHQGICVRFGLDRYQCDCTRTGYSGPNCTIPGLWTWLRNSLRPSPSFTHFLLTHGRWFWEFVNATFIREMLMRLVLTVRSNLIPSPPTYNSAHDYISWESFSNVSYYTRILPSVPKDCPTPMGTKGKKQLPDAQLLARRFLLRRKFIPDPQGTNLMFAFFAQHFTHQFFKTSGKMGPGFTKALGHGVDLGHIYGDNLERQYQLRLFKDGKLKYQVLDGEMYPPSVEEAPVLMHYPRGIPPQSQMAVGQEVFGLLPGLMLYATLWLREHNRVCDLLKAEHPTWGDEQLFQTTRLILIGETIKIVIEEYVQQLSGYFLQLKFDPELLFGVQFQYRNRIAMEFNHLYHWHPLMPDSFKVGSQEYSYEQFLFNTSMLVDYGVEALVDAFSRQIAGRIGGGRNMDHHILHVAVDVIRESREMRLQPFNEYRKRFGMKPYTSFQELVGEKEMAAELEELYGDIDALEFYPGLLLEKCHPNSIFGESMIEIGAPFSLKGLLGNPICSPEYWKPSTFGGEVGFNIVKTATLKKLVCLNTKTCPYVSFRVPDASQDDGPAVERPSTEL
assay.info: Inhibition of COX1 in human platelets using arachidonic acid as substrate assessed as residual activity at 50 uM preincubated for 15 mins before substrate addition measured after 10 mins
experimental.endpoint: Activity (%)

Solved cases (2 shown):
Record Oc1cccc(Nc2nc(-c3ccc(Cl)cc3)cs2)c1 , field Activity: 19.5

Field Activity (entry Oc1ccc(-c2csc(Nc3ccc(F)cc3)n2)cc1 ) reads 2.1

A. COc1ccc(Nc2nc(-c3ccccc3)cs2)cc1
B. Oc1ccc(Nc2nc(-c3ccccc3)cs2)cc1
Q. Response body: label of entry with the larger Activity; valid values A , B . Your answer should be the label of the entry you select.
A. B
(B: 16.2%, A: 2.3%)

====

Each entry below lists one item and its recorded Activity value.
system.under.test: Polyunsaturated fatty acid lipoxygenase ALOX15 (Homo sapiens)
assay.info: Inhibition of 15-LO1-mediated 15-HPETE formation in human eosinophil using arachidonic acid as substrate assessed as residual activity at 50 uM preincubated for 15 mins before substrate addition measured after 10 mins

Short answer for FC(F)(F)c1cc(Nc2nc(-c3ccc(Cl)cc3)cs2)cc(C(F)(F)F)c1 : Activity was > 70%

Briefly, Activity measured for FC(F)(F)Oc1ccc(Nc2nc(-c3ccc(Cl)cc3)cs2)cc1 : > 70%

Record summary for COc1ccccc1Nc1nc(-c2ccc(Cl)cc2)cs1 : reported Activity = > 70%

The molecule Oc1ccc(Nc2nc(-c3ccccc3)cs2)cc1 showed Activity equal to 13%

What the record says about Cc1ccc(-c2csc(Nc3ccc(O)cc3)n2)cc1 : Activity is 44.6%

The reported Activity of the molecule Oc1ccc(-c2csc(Nc3ccc(F)cc3)n2)cc1 was 53.7%

The origin of these recorded values is ChEMBL document CHEMBL3352533.
